biological target: GluA2 AMPA receptor subunit (flip isoform) (Homo sapiens, UniProt P42262); construct: expressed in transfected cells; host or cells: HEK293; assay: Whole-cell patch-clamp electrophysiology, homomeric GluA2 expressed in HEK293 cells; format: cell-based; conditions: glutamate + 12 µM compound, glutamate alone 2.6±0.1 ms
Sequence (P42262 25-883 isoform P42262-2 limits assumed): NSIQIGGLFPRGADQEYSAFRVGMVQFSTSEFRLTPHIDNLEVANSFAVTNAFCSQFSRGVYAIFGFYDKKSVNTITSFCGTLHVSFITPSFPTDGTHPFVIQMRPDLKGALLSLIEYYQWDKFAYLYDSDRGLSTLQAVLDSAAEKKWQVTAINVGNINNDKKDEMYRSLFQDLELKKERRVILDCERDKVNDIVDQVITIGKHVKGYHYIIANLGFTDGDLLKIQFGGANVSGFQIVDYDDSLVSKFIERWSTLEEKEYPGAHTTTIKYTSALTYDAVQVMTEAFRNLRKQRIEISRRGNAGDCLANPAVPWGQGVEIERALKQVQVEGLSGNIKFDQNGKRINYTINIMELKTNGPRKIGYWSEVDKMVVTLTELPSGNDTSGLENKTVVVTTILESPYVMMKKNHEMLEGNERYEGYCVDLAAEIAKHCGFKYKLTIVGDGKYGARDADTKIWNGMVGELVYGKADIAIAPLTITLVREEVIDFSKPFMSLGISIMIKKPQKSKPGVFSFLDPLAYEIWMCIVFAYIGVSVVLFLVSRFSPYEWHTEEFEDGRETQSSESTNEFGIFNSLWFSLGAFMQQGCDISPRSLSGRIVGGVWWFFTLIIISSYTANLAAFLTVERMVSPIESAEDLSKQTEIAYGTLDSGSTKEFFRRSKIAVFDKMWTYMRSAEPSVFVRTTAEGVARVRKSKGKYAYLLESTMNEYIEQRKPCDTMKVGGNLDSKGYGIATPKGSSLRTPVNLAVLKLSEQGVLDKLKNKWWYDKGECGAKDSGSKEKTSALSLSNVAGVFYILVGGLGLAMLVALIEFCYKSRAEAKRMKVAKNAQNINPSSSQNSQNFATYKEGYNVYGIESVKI
measure: t des (weighted desensitization time constant) (ms)

INSERT INTO results (molecule, target_desc, reported_value) VALUES
  ('O=C(CCCCC1CCSS1)OCCCO[N+](=O)[O-] (centres unmarked) [LA2, 1-Nitrooxy–propane-3-lipoyl ester]', 'GluA2 AMPA receptor subunit (flip isoform) (Homo sapiens, UniProt P42262)', 0.8),
  ('O=C(O)CCCCC1CCSS1 (stereo not drawn) [α-LA, alpha-Lipoic acid, reference compound]', 'GluA2 AMPA receptor subunit (flip isoform) (Homo sapiens, UniProt P42262)', 1.5),
  ('O=C(CCCCC1CCSS1)OCCCCCCO[N+](=O)[O-] (centres unmarked) [LA3, 1-Nitrooxy–Hexane-6-lipoyl ester]', 'GluA2 AMPA receptor subunit (flip isoform) (Homo sapiens, UniProt P42262)', 1.8),
  ('O=C(CCCCC1CCSS1)OCCCCCCO (centres unmarked) [LA4, 1-Hydroxy-6-Lipoester]', 'GluA2 AMPA receptor subunit (flip isoform) (Homo sapiens, UniProt P42262)', 1.9),
  ('O=C(CCCCC1CCSS1)OCCCO (centres unmarked) [LA1, 1-Hydroxy-3-Lipo Ester]', 'GluA2 AMPA receptor subunit (flip isoform) (Homo sapiens, UniProt P42262)', 1.0);

====

target: GluA2 AMPA receptor subunit (flip isoform) (Homo sapiens); construct: expressed in transfected cells; host or cells: HEK293; assay: Whole-cell patch-clamp electrophysiology, homomeric GluA2 expressed in HEK293 cells; format: cell-based; conditions: 10 mM glutamate + 12 µM compound, −60 mV, pH 7.4, 22 °C, mean ± SEM, n = 10
measure: Amplitude (glutamate + compound) (pA)

INSERT INTO assay_data (compound, reported_value) VALUES
  ('O=C(CCCCC1CCSS1)OCCCCCCO (centres unmarked) [LA4, 1-Hydroxy-6-Lipoester]', 166),
  ('O=C(CCCCC1CCSS1)OCCCCCCO[N+](=O)[O-] (centres unmarked) [LA3, 1-Nitrooxy–Hexane-6-lipoyl ester]', 155),
  ('O=C(O)CCCCC1CCSS1 (stereo not drawn) [α-LA, alpha-Lipoic acid, reference compound]', 136),
  ('O=C(CCCCC1CCSS1)OCCCO[N+](=O)[O-] (centres unmarked) [LA2, 1-Nitrooxy–propane-3-lipoyl ester]', 112),
  ('O=C(CCCCC1CCSS1)OCCCO (centres unmarked) [LA1, 1-Hydroxy-3-Lipo Ester]', 124);

====

Target: GluA1/2 AMPA receptor subunits (flip isoform) (Homo sapiens, UniProt P42261+P42262)
Construct: expressed in transfected cells; host or cells: HEK293
Sequence (P42261 19-906 isoform P42261-2 limits assumed): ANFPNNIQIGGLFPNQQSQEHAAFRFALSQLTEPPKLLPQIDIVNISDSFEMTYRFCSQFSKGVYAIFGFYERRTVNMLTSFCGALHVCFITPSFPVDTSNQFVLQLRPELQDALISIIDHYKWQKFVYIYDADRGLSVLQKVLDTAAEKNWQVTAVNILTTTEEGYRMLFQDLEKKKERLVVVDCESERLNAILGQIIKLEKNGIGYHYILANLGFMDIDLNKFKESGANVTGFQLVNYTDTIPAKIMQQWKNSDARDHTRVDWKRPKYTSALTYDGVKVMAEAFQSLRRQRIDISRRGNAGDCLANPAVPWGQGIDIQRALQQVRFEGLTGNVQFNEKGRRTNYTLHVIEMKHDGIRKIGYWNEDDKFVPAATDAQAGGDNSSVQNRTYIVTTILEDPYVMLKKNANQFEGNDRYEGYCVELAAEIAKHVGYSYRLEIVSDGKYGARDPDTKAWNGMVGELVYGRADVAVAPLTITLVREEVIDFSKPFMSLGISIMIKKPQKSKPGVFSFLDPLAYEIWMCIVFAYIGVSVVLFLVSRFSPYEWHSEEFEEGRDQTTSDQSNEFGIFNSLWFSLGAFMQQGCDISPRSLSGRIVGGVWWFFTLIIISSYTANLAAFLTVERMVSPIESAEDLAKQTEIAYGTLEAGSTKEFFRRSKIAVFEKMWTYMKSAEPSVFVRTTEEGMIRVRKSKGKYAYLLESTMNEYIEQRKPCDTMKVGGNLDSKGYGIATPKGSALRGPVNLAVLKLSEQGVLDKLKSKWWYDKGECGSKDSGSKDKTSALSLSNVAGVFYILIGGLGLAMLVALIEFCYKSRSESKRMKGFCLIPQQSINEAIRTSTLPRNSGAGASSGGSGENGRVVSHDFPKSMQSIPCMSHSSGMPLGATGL
Sequence (P42262 25-883 isoform P42262-2 limits assumed): as the sequence (P42262 25-883 isoform P42262-2 limits assumed) above
Assay: Whole-cell patch-clamp electrophysiology, heteromeric GluA1/2 expressed in HEK293 cells
Format: cell-based
Settings: Hill fit, read-out: Log IC50 (converted)
Experimental: Up to 20 μg of high-copy plasmid DNA was prepared using the QIAGEN Plasmid Mini Kit, the tubes were then centrifuged to extract the supernatant containing the plasmid DNA, ethanol was used to wash the DNA pellet, then centrifuged again and the supernatant was carefully removed as to not disturb the pellet, finally, the pellet was air-dried, and the DNA was re-dissolved in a suitable volume of buffer, (our prior study detailed the whole DNA preparation data). […]
Each item that follows carries a reported IC50.
measure: IC50 (µM)

INSERT INTO results (compound, measure, reported_value) VALUES
  ('O=C(O)CCCCC1CCSS1 (stereo not drawn) [α-LA, alpha-Lipoic acid, reference compound]', 'IC50', 3.89),
  ('O=C(CCCCC1CCSS1)OCCCO (centres unmarked) [LA1, 1-Hydroxy-3-Lipo Ester]', 'IC50', 3.55),
  ('O=C(CCCCC1CCSS1)OCCCCCCO (centres unmarked) [LA4, 1-Hydroxy-6-Lipoester]', 'IC50', 4.37),
  ('O=C(CCCCC1CCSS1)OCCCCCCO[N+](=O)[O-] (centres unmarked)', 'IC50', 4.37),
  ('O=C(CCCCC1CCSS1)OCCCO[N+](=O)[O-] (centres unmarked)', 'IC50', 3.39);

Origin of the recorded values: paper PMC9688225
